I'd appreciate it if you could supply CTG-3D luminescence at 96 h values for the items below.
Tested on: HCI-012 (organoid from a breast cancer xenograft)
Experiment: CTG-3D luminescence at 96 h relative to day-0 seeding control (ratio to day 0); higher = more growth / less cytotoxicity; PDxO 3D drug screen, 96 h, CTG-3D normalised to day-0 seeding control.
Conditions: 12.5 pM; days in culture: 162
Answers are plain numbers.

Recorded CTG-3D luminescence at 96 h, per entry:
>  <molecule>
CN(Cc1cnc2nc(N)nc(N)c2n1)c1ccc(C(=O)N[C@@H](CCC(=O)O)C(=O)O)cc1 [methotrexate]

>  <resultValue>
2.66

$$$$
>  <molecule>
CC(=O)O[C@H]1C(=O)[C@@]2(C)[C@H]([C@H](OC(=O)c3ccccc3)[C@]3(O)C[C@H](OC(=O)[C@H](O)[C@@H](NC(=O)c4ccccc4)c4ccccc4)C(C)=C1C3(C)C)[C@]1(OC(C)=O)CO[C@@H]1C[C@@H]2O

>  <resultValue>
2.5

$$$$
>  <molecule>
COc1cccc2c1C(=O)c1c(O)c3c(c(O)c1C2=O)C[C@@](O)(C(=O)CO)C[C@@H]3O[C@H]1C[C@H](N)[C@H](O)[C@H](C)O1

>  <resultValue>
2.15

$$$$
>  <molecule>
CCc1c2c(nc3ccc(O)cc13)-c1cc3c(c(=O)n1C2)COC(=O)[C@]3(O)CC

>  <resultValue>
2.38

$$$$
>  <molecule>
Cc1nc(-c2cn3c(n2)-c2ccc(-c4cnn(C(C)(C)C(N)=O)c4)cc2OCC3)n(C(C)C)n1

>  <resultValue>
2.56

$$$$

Please report CTG-3D luminescence at 96 h for every entry that follows.
1. C[C@H](NC(=O)CCC(F)(F)F)C(=O)N[C@@H]1C(=O)N(CCO)c2ncccc2-c2ccccc21
2. O=C(c1ccc(F)c(F)c1Nc1ccc(I)cc1F)N1CC(O)([C@@H]2CCCCN2)C1
3. CNC(=O)c1cccc(-c2ccc3c(N4CCOC[C@@H]4C)nc(N4CCOC[C@@H]4C)nc3n2)c1

RESULT:
[2.11, 2.44, 2.68]

QUERY: Kindly state the measured CTG-3D luminescence at 96 h obtained for C[C@@H]1COCCN1c1cc(C2([S@](C)(=N)=O)CC2)nc(-c2cc[nH]c3nccc2-3)n1 with HCI-012.
RESULT: 2.52

====

I'd appreciate it if you could supply CTG-3D luminescence at 96 h values for the items below.
Tested on: HCI-015 (organoid from a triple-negative breast cancer xenograft)
Assay: CTG-3D luminescence at 96 h relative to day-0 seeding control (ratio to day 0); higher = more growth / less cytotoxicity; PDxO 3D drug screen, 96 h, CTG-3D normalised to day-0 seeding control.
Settings: 625 fM; days in culture: 191
Numbers only.

Recorded CTG-3D luminescence at 96 h, per entry:
>  <recordSmiles>
CCN(c1cc(C#CCN2CCOCC2)cc(C(=O)NCc2c(C)cc(C)[nH]c2=O)c1C)[C@H]1CC[C@H](N(C)CCOC)CC1

>  <testTarget>
HCI-015

>  <attributeMeasured>
CTG-3D luminescence at 96 h

>  <resultValue>
1.91

$$$$
>  <recordSmiles>
O=C(O)C1(C(=O)O)CCC1.[NH2-].[NH2-].[Pt+2]

>  <testTarget>
HCI-015

>  <attributeMeasured>
CTG-3D luminescence at 96 h

>  <resultValue>
1.15

$$$$
>  <recordSmiles>
Nc1ccn([C@@H]2O[C@H](CO)[C@@H](O)C2(F)F)c(=O)n1

>  <testTarget>
HCI-015

>  <attributeMeasured>
CTG-3D luminescence at 96 h

>  <resultValue>
1.5

$$$$
>  <recordSmiles>
C/C=C1\NC(=O)[C@H]2CSSCC/C=C/[C@H](CC(=O)N[C@H](C(C)C)C(=O)N2)OC(=O)[C@H](C(C)C)NC1=O

>  <testTarget>
HCI-015

>  <attributeMeasured>
CTG-3D luminescence at 96 h

>  <resultValue>
2.21

$$$$
>  <recordSmiles>
COc1cccc2c1C(=O)c1c(O)c3c(c(O)c1C2=O)C[C@@](O)(C(=O)CO)C[C@@H]3O[C@H]1C[C@H](N)[C@H](O)[C@H](C)O1

>  <testTarget>
HCI-015

>  <attributeMeasured>
CTG-3D luminescence at 96 h

>  <resultValue>
1.61

$$$$

Please report CTG-3D luminescence at 96 h for every entry that follows.
1. CC[C@H](NC(=O)[C@H](C)NC)C(=O)N1C[C@@H](O)C[C@H]1Cc1c(-c2[nH]c3cc(F)ccc3c2C[C@@H]2C[C@H](O)CN2C(=O)[C@H](CC)NC(=O)[C@H](C)NC)[nH]c2cc(F)ccc12
2. C[C@@H]1COCCN1c1cc(C2([S@](C)(=N)=O)CC2)nc(-c2cc[nH]c3nccc2-3)n1
3. CC1(C)CCC(c2ccc(Cl)cc2)=C(CN2CCN(c3ccc(C(=O)NS(=O)(=O)c4ccc(N[C@H](CCN5CCOCC5)CSc5ccccc5)c(S(=O)(=O)C(F)(F)F)c4)cc3)CC2)C1

RESULT:
[0.41, 1.52, 1.61]

====

Test system: HCI-002 (organoid from a triple-negative breast cancer xenograft)
Assay: CTG-3D luminescence at 96 h relative to day-0 seeding control (ratio to day 0); higher = more growth / less cytotoxicity; PDxO 3D drug screen, 96 h, CTG-3D normalised to day-0 seeding control.
Details: 100 µM; days in culture: 82
Respond with True for CTG-3D luminescence at 96 h values of 1 and above, False for values below.

Some solved entries appear below for comparison.
>  <molecule>
CCN(c1cc(C#CCN2CCOCC2)cc(C(=O)NCc2c(C)cc(C)[nH]c2=O)c1C)[C@H]1CC[C@H](N(C)CCOC)CC1

>  <testTarget>
HCI-002

>  <category>
True

$$$$
>  <molecule>
CC(=O)O[C@H]1C(=O)[C@@]2(C)[C@H]([C@H](OC(=O)c3ccccc3)[C@]3(O)C[C@H](OC(=O)[C@H](O)[C@@H](NC(=O)c4ccccc4)c4ccccc4)C(C)=C1C3(C)C)[C@]1(OC(C)=O)CO[C@@H]1C[C@@H]2O

>  <testTarget>
HCI-002

>  <category>
False

$$$$
>  <molecule>
C=CC(=O)N1CCC[C@@H](n2nc(-c3ccc(Oc4ccccc4)cc3)c3c(N)ncnc32)C1

>  <testTarget>
HCI-002

>  <category>
False

$$$$
>  <molecule>
CN(Cc1cnc2nc(N)nc(N)c2n1)c1ccc(C(=O)N[C@@H](CCC(=O)O)C(=O)O)cc1 [methotrexate]

>  <testTarget>
HCI-002

>  <category>
True

$$$$

We now examine a further molecule.
QUERY: # bool: CTG-3D luminescence at 96 h of COc1cccc2c1C(=O)c1c(O)c3c(c(O)c1C2=O)C[C@@](O)(C(=O)CO)C[C@@H]3O[C@H]1C[C@H](N)[C@H](O)[C@H](C)O1 >= 1
RESULT: False

====

System: HCI-012
Test: CTG-3D luminescence at 96 h relative to day-0 seeding control (ratio to day 0); higher = more growth / less cytotoxicity; PDxO 3D drug screen, 96 h, CTG-3D normalised to day-0 seeding control.
Conditions: 12.5 pM; days in culture: 201
I'd appreciate it if you could supply CTG-3D luminescence at 96 h values for the items below.
Numbers only.

Recorded CTG-3D luminescence at 96 h, per entry:
>  <compound>
C[C@@H]1COCCN1c1cc(C2([S@](C)(=N)=O)CC2)nc(-c2cc[nH]c3nccc2-3)n1

>  <testTarget>
HCI-012

>  <CTG-3D luminescence at 96 h>
2.62

$$$$
>  <compound>
O=C(c1ccc(F)c(F)c1Nc1ccc(I)cc1F)N1CC(O)([C@@H]2CCCCN2)C1

>  <testTarget>
HCI-012

>  <CTG-3D luminescence at 96 h>
2.69

$$$$
>  <compound>
CC1(C)CCC(c2ccc(Cl)cc2)=C(CN2CCN(c3ccc(C(=O)NS(=O)(=O)c4ccc(N[C@H](CCN5CCOCC5)CSc5ccccc5)c(S(=O)(=O)C(F)(F)F)c4)cc3)CC2)C1

>  <testTarget>
HCI-012

>  <CTG-3D luminescence at 96 h>
3.09

$$$$
>  <compound>
NC(=O)Nc1cc(-c2cccc(F)c2)sc1C(=O)N[C@H]1CCCNC1

>  <testTarget>
HCI-012

>  <CTG-3D luminescence at 96 h>
2.51

$$$$
>  <compound>
CN(Cc1cnc2nc(N)nc(N)c2n1)c1ccc(C(=O)N[C@@H](CCC(=O)O)C(=O)O)cc1 [methotrexate]

>  <testTarget>
HCI-012

>  <CTG-3D luminescence at 96 h>
2.49

$$$$
>  <compound>
C=CCn1c(=O)c2cnc(Nc3ccc(N4CCN(C)CC4)cc3)nc2n1-c1cccc(C(C)(C)O)n1

>  <testTarget>
HCI-012

>  <CTG-3D luminescence at 96 h>
2.67

$$$$

Would you kindly look at the next entry?
QUERY: Item under review: COc1cc2c(Oc3ccc4[nH]c(C)cc4c3F)ncnc2cc1OCCCN1CCCC1 . Reported CTG-3D luminescence at 96 h?
RESULT: 2.36
